- Tested on: SMN protein
- assay.explanation: cellular SMN ELISA (SMN protein elevation)
- Type: cell-based
- recorded.conditions: ELISA condition 1: compound concentration range 20 nM-10 uM; myoblast cell line from SMNdelta7 mouse model, 24 hours treatment; fold activation over DMSO control
- Procedure: A cellular SMN ELISA was used to measure the effects of low molecular weight compounds on SMN protein elevation. Cells from a myoblast cell line derived from the SMNdelta7 mouse model (kind gift from Steve Burden, NYU) were seeded into a 384-well plate at a density of 3000 cells/well and treated with compounds for 24 hours. […] The reaction was stopped by addition of 40 uL of stop solution (Cell signaling, Catalog number 7002L) and absorption was measured at 450 nm. […]
Provide the reported SMN activity Fold of each item.
Numbers only, in Fold.

Below, each entry is followed by its recorded SMN activity Fold result.
| smiles.repr | result.unit | SMN activity Fold |
| --- | --- | --- |
| CN(c1ccc(-c2ccc(Cl)cc2O)nn1)C1CC(C)(C)N(C)C(C)(C)C1 | Fold | 2.06 |
| CC1(C)CC(Nc2ccc(-c3ccc4nonc4c3)nn2)CC(C)(C)N1 | Fold | 2.68 |
| CC1(C)CC(Nc2ccc(-c3cnc4ccccc4c3)nn2)CC(C)(C)N1 | Fold | 2.50 |
| CN1C(C)(C)CC(Nc2ccc(-c3ccc(-n4cccn4)cc3O)nn2)CC1(C)C | Fold | 2.62 |
| CC1(C)CC(Nc2ccc(-c3cc4ccccc4cc3O)nn2)CC(C)(C)N1 | Fold | 2.48 |

Quick request: SMN activity Fold for each listed item, please.
1. Cc1nc2ccc(-c3ccc(NC4CC(C)(C)NC(C)(C)C4)nn3)cc2o1
2. CN(c1ccc(-c2cc3ccc(OCCCNC(=O)OC(C)(C)C)cc3cc2O)nn1)C1CC(C)(C)NC(C)(C)C1
3. CN(c1ccc(-c2ccccc2O)nn1)C1CC(C)(C)NC(C)(C)C1
4. Oc1cc(-n2cccn2)ccc1-c1ccc(NC2CNC2)nn1

Result string:
1. 2.46
2. 2.32
3. 2.07
4. 1.95

Quick request: SMN activity Fold for each listed item, please.
1. CN(c1ccc(-c2cnc3ccccc3c2)nn1)C1CC(C)(C)NC(C)(C)C1
2. CC1(C)CC(Nc2ccc(-c3ccc4scnc4c3)nn2)CC(C)(C)N1
3. CN(c1ccc(-c2cc3cc(C#N)ccc3s2)nn1)C1CC(C)(C)NC(C)(C)C1
4. CN(c1ccc(-c2cnc3ccccc3n2)nn1)C1CC(C)(C)NC(C)(C)C1
5. CN(c1ccc(-c2cc(C#N)ccc2O)nn1)C1CC(C)(C)NC(C)(C)C1
6. CN(c1ccc(-c2ccc(-n3cccn3)nc2)nn1)C1CC(C)(C)NC(C)(C)C1

Result string:
[2.49, 2.37, 2.05, 3.04, 2.38, 3.10]

Quick request: SMN activity Fold for each listed item, please.
1. C=CCNC(=O)c1ccc(-c2ccc(N(C)C3CC(C)(C)NC(C)(C)C3)nn2)c(O)c1
2. CN(c1ccc(-c2ccc3cc(O)ccc3c2)nn1)C1CC(C)(C)NC(C)(C)C1
3. CN1C(C)(C)CC(Nc2ccc(-c3ccc(Cl)cc3O)nn2)CC1(C)C
4. Oc1cc(-n2cccn2)ccc1-c1ccc(N2CCC3(CC2)CNC3)nn1

Result string:
2.72
2.18
2.03
1.93

Quick request: SMN activity Fold for each listed item, please.
1. C[C@@H]1C[C@H](Oc2ccc(-c3ccc(-n4cccn4)cc3O)nn2)C[C@H](C)N1
2. CN(c1ccc(-c2cc(F)c(F)cc2O)nn1)C1CC(C)(C)NC(C)(C)C1
3. CN(c1ccc(-c2cc(C(F)(F)F)ccc2O)nn1)C1CC(C)(C)NC(C)(C)C1
4. CN1C(C)(C)CC(Nc2ccc(-c3cc4ccccc4s3)nn2)CC1(C)C
5. CC1(C)CC(Oc2ccc(-c3cc4ccccc4s3)nn2)CC(C)(C)N1

Result string:
1: 2.62; 2: 2.70; 3: 2.67; 4: 2.54; 5: 2.00

Query string: Read off the recorded SMN activity Fold for CN(c1ccc(-c2ccc(-n3cccc3)nc2)nn1)C1CC(C)(C)NC(C)(C)C1
Result string: 2.69
